- TARGET_OR_SYSTEM: human TSHR (Homo sapiens)
- Sequence (P16473 21-764): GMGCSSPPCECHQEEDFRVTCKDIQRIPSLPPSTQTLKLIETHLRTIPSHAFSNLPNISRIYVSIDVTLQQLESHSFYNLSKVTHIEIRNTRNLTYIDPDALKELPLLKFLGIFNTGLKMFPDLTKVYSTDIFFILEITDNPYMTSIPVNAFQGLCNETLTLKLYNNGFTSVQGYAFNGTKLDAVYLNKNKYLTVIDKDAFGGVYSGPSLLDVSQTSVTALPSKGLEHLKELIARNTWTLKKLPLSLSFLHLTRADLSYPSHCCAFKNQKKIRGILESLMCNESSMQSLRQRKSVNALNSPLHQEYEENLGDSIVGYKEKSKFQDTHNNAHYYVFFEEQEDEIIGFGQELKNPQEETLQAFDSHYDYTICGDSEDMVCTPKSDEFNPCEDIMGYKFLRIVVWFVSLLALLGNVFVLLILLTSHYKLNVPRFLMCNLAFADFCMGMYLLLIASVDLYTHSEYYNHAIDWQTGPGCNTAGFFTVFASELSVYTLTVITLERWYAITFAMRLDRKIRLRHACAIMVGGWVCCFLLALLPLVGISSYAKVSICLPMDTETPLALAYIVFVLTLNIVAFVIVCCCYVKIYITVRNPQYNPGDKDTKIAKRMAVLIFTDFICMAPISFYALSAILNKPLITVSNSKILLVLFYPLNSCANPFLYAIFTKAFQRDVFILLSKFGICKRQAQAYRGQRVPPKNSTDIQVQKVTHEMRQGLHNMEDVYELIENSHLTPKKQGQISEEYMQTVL
- ASSAY_METHOD_TEXT: Measurement of antagonist activity using TSH-induced cAMP production in human TSHR-stably expressing CHO cells
- COND: human TSH final concentration 50 ng/mL
pIC50: −log10 of the molar value.
MEASURE: pIC50

INSERT INTO results (molecule, reported_result) VALUES
  ('O=C(NC1CC1)N[C@@H]1CC[C@@H](C(F)F)N(Cc2cc(C(F)(F)F)ccc2F)C1=O [Example A-26]', '4.52 to 5.52'),
  ('NC(=O)N[C@@H]1Cc2ccc(C(F)F)cc2N(Cc2cc(C(F)F)ccc2F)C1=O [Example C-14]', '> 5.52'),
  ('C[C@@H]1CC[C@@H](NC(N)=O)C(=O)N1Cc1cc(CCc2ccccc2)ccc1F (relative stereo) [Example A-12]', '> 5.52'),
  ('CNC(=O)Nc1ccc(C)n(Cc2cc(C(F)(F)F)cc(Cl)c2F)c1=O [Example B-10]', '> 5.52'),
  ('NC(=O)NC1CCC2(CC2)N(Cc2cccc(C(F)(F)F)c2)C1=O (stereo not shown) [Example A-20]', '4.52 to 5.52'),
  ('NC(=O)Nc1ccc2n(c1=O)CC(c1cccc(C(F)(F)F)c1)C2 (stereo not shown) [Example E-7]', '4.52 to 5.52'),
  ('CC(c1cc(C(F)(F)F)ccc1F)N1C(=O)[C@H](NC(N)=O)Cc2ccc(F)cc21 (stereo partly shown) [Example C-24]', '4.52 to 5.52'),
  ('CN(C)C(=O)C[C@@H]1CC[C@@H](NC(N)=O)C(=O)N1Cc1cc(C(F)(F)F)ccc1F (relative stereo) [Example D-10]', '< 4.52');

Write down pIC50 measured for item C[C@@H]1CC[C@@H](NC(N)=O)C(=O)N1Cc1cc(C(F)F)ccc1F (relative stereo) [Example A-2]
> 5.52

Write down pIC50 measured for item CC(C)(C)OC(=O)NCC[C@@H]1C[C@H](NC(N)=O)C(=O)N(Cc2cc(C(F)(F)F)ccc2F)C1 (relative stereo) [Example A-19]
> 5.52

Write down pIC50 measured for item CC(C)(C)OC(=O)NCCc1cc(NC(N)=O)c(=O)n(Cc2cc(C(F)(F)F)ccc2F)c1 [Example B-3]
> 5.52

Write down pIC50 measured for item CN(C)C[C@@H]1CC[C@@H](NC(N)=O)C(=O)N1Cc1cc(C(F)(F)F)ccc1F [Example D-9]
< 4.52

* * *

- TARGET_OR_SYSTEM: human TSHR (Homo sapiens)
- ASSAY_METHOD_TEXT: Measurement of antagonist activity using TSH-induced cAMP production in human TSHR-stably expressing CHO cells
- COND: human TSH final concentration 50 ng/mL
pIC50: −log10 of the molar value.
Listed next: entries and their corresponding pIC50.

Write down pIC50 measured for item NC(=O)N[C@@H]1C[C@H](F)CN(Cc2cc(C(F)(F)F)ccc2F)C1=O
< 4.52

Write down pIC50 measured for item Cc1ccc(NC(N)=O)c(=O)n1Cc1cc(C(F)(F)F)ccc1F
> 5.52

Write down pIC50 measured for item Cc1ccc2c(c1)N(Cc1cc(C(F)F)ccc1F)C(=O)[C@H](NC(N)=O)C2
> 5.52

Write down pIC50 measured for item C=CCc1ccc(F)c(CN2C(=O)[C@H](NC(N)=O)CC[C@H]2C(F)(F)F)c1
> 5.52

Write down pIC50 measured for item CNC(=O)N[C@@H]1Cc2ccc(C(F)(F)F)cc2N(Cc2cc(C(F)F)ccc2F)C1=O
> 5.52

Write down pIC50 measured for item N#Cc1ccc(NC(N)=O)c(=O)n1Cc1cc(C(F)(F)F)ccc1F
> 5.52

Write down pIC50 measured for item NC(=O)N[C@@H]1Cc2c(F)cc(F)cc2N(Cc2cc(C(F)F)ccc2F)C1=O
> 5.52

Write down pIC50 measured for item NC(=O)N[C@@H]1Cc2ccc(C(N)=O)cc2N(Cc2cc(C(F)(F)F)ccc2F)C1=O
4.52 to 5.52

Write down pIC50 measured for item O=C(N[C@@H]1CC[C@@H](C(F)F)N(Cc2cc(C(F)(F)F)ccc2F)C1=O)C1CC1
> 5.52

Write down pIC50 measured for item NC(=O)N[C@@H]1Cc2ccsc2N(Cc2cc(C(F)(F)F)ccc2F)C1=O
> 5.52

Write down pIC50 measured for item NC(=O)N[C@@H]1Cc2ccc(F)cc2N(Cc2cc(C(F)(F)F)cc(Cl)c2F)C1=O
> 5.52

Write down pIC50 measured for item C[C@@H]1CC[C@@H](NC(N)=O)C(=O)N1Cc1cc(C(F)(F)F)ccc1F
> 5.52

Write down pIC50 measured for item NC(=O)N[C@@H]1Cc2ccccc2N(CCc2ccccc2)C1=O
4.52 to 5.52

Write down pIC50 measured for item C[C@@H]1CC[C@@H](NC(N)=O)C(=O)N1Cc1cc(-c2ccccc2)ccc1F (relative stereo)
4.52 to 5.52

* * *

- TARGET_OR_SYSTEM: UniProtKB P16473
- ASSAY_METHOD_TEXT: Measurement of antagonist activity using TSH-induced cAMP production in human TSHR-stably expressing CHO cells
- COND: human TSH final concentration 50 ng/mL
pIC50: −log10 of the molar value.
Listed next: entries and their corresponding pIC50.

INSERT INTO measurements (compound, reported_result) VALUES
  ('NC(=O)Nc1cc(CCC(=O)O)cn(Cc2cc(C(F)(F)F)ccc2F)c1=O', '< 4.52'),
  ('Cc1cccc(CN2C(=O)[C@H](NC(N)=O)Cc3ccccc32)c1', '4.52 to 5.52'),
  ('NC(=O)N[C@@H]1C[C@H]2C[C@H]2N(Cc2cc(C(F)(F)F)ccc2F)C1=O (relative stereo)', '> 5.52');

Write down pIC50 measured for item NC(=O)N[C@@H]1Cc2ccc(C(F)F)cc2N(Cc2cccc(C(F)(F)F)n2)C1=O
> 5.52

Write down pIC50 measured for item C=CCc1ccc(NC(N)=O)c(=O)n1Cc1cc(C(F)(F)F)cc(Cl)c1F
> 5.52

Write down pIC50 measured for item NC(=O)N[C@@H]1Cc2ccncc2N(Cc2cccc(C(F)(F)F)c2)C1=O
4.52 to 5.52

Write down pIC50 measured for item NC(=O)N[C@@H]1Cc2ccc(C(F)(F)F)cc2N(Cc2cc(C(F)F)ccc2F)C1=O
> 5.52

* * *

- TARGET_OR_SYSTEM: human TSHR (Homo sapiens)
- Construct: expressed in transfected cells
- ASSAY_METHOD_TEXT: Measurement of antagonist activity using TSH-induced cAMP production in human TSHR-stably expressing CHO cells
- Assay type: cell-based
- COND: human TSH final concentration 50 ng/mL
pIC50: −log10 of the molar value.
MEASURE: pIC50

A selection of reference data follows.
INSERT INTO results (compound, reported_result) VALUES
  ('Cc1ccc(NC(=O)NC2CC2)c(=O)n1Cc1cc(C(F)(F)F)cc(Cl)c1F [Example B-11]', '> 5.52'),
  ('NC(=O)N[C@@H]1Cc2ccccc2N(Cc2cc(C(F)F)ccc2F)C1=O [Example C-4]', '> 5.52'),
  ('Cc1cnc(NC(N)=O)c(=O)n1Cc1cc(C(F)(F)F)cc(Cl)c1F [Example B-9]', '4.52 to 5.52'),
  ('NC(=O)N[C@@H]1CC[C@@H]2CC[C@@H](Cc3ccccc3C(F)(F)F)N2C1=O [Example D-3]', '4.52 to 5.52');

Write down pIC50 measured for item C[C@@H]1CC[C@@H](NC(N)=O)C(=O)N1Cc1cc(C#CC2CC2)ccc1F (relative stereo) [Example A-10]
4.52 to 5.52

* * *

Listed next: entries and their corresponding pIC50.
- TARGET_OR_SYSTEM: human TSHR (Homo sapiens)
- ASSAY_METHOD_TEXT: Measurement of antagonist activity using TSH-induced cAMP production in human TSHR-stably expressing CHO cells
- COND: human TSH final concentration 50 ng/mL
pIC50: −log10 of the molar value.

A selection of reference data follows.
INSERT INTO assay_data (compound, target_or_system, measure, reported_result) VALUES
  ('C[C@@H]1CC[C@@H](NC(N)=O)C(=O)N1Cc1cc(C(F)(F)F)cc(Cl)c1F (relative stereo) [Example A-3]', 'human TSHR (Homo sapiens)', 'pIC50', '> 5.52'),
  ('NC(=O)N[C@@H]1Cc2ccc(Cl)cc2N(Cc2cc(C(F)F)ccc2F)C1=O [Example C-12]', 'human TSHR (Homo sapiens)', 'pIC50', '> 5.52'),
  ('N#Cc1ccc2c(c1)N(Cc1cccc(C(F)(F)F)c1)C(=O)[C@H](NC(N)=O)C2 [Example C-8]', 'human TSHR (Homo sapiens)', 'pIC50', '4.52 to 5.52');

Field: next compound
Write down pIC50 measured for item NC(=O)N[C@@H]1CC[C@@H](CO)N(Cc2cc(C(F)(F)F)ccc2F)C1=O [Example D-4]
4.52 to 5.52
